# experimentalProtocol: RP, Waters ACQUITY UPLC HSS C18, 100 × 2.1 mm, 1.7 µm, 40 °C, 0.35 mL/min, estimated dead time 0.63 min; A: water + 0.1% formic acid; B: methanol + 0.1% formic acid; gradient (min/%B) 0/0.5 4/70 4.5/98 5.4/98
# testParameters: stereoisomer not certain
observable: LC retention time (min)
Numbers only, in min.

Here are 3 compounds together with their reported answers.
{"columns": ["compound", "resultUnits", "LC retention time"],
 "data": [
  ["O=C(O)c1cc(=O)c2cccc(O)c2[nH]1", "min", 3.04],
  ["OCCc1c[nH]c2ccccc12", "min", 4.22],
  ["CC1OC(n2cnc3c(N)ncnc32)C(O)C1O (stereo unspecified)", "min", 2.25]
]}

# batch size: 4; output LC retention time per entry
1. CSCCC(NC=O)C(=O)O (stereo unspecified)
2. OCC1OCC(O)C(O)C1O (stereo unspecified)
3. NC(=O)NCCCC(N)C(=O)O (stereo unspecified)
4. Cc1ccc(S(=O)(=O)O)cc1

[out]
[2.78, 0.864, 0.766, 3]

# batch size: 7; output LC retention time per entry
1. [2H]c1c([2H])c([2H])c(C(=O)NCC(=O)O)c([2H])c1[2H]
2. CSc1ccc2c(c1)N(CCC1CCCCN1C)c1ccccc1S2 (stereo unspecified)
3. CC(CC(=O)O)C(=O)O (stereo unspecified)
4. O=C(O)CNC(=O)c1ccccc1
5. NCCc1ccc(O)cc1
6. O=C(O)CCCCC1SCC2NC(=O)NC21 (stereo unspecified)
7. O=C(O)C#Cc1ccccc1

[out]
[3.22, 5.19, 2.58, 3.23, 1.7, 3.42, 4.39]

# batch size: 2; output LC retention time per entry
1. O=C(O)CCCCCCC(=O)NCC(=O)O
2. Cc1cc2nc3[nH]c(=O)[nH]c(=O)c3nc2cc1C

[out]
3.35
4.5

# batch size: 5; output LC retention time per entry
1. O=C(O)CCC(=O)O
2. Cn1c(=O)c2c([nH]c(=O)n2C)n(C)c1=O
3. CC(CCC(=O)O)CC(=O)O (stereo unspecified)
4. NCC(=O)CCC(=O)O
5. CCOC(=O)c1ccc(N)cc1

[out]
1: 1.73; 2: 3; 3: 3.46; 4: 0.768; 5: 4.4
